- Test system: K24384-001-R-PDC complex spheroid growth;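 also: percent of DMSO vehicle-treated spheroid viability set as 100%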
- Assay overview: Anticancer human tumor K24384-001-R-PDC patient-derived pancreatic adenocarcinoma cell line growth inhibition [AhR]
- Measurement setup: second compound 1 µM; first compound 1 µM; hits give low values
Listing: viability, T/C of selected molecules

Input: Need viability, T/C, item O=C(C=Cc1cccc(S(=O)(=O)Nc2ccccc2)c1)NO + CC(CO)NC(=O)c1cc(-c2ccc(Cl)cc2)nn(-c2cnn(C)c2)c1=O
Output: 81%

Input: Need viability, T/C, item CC1COCCN1c1cc(C2(S(C)(=N)=O)CC2)nc(-c2ccnc3[nH]ccc23)n1 (configuration not stated) + CC(CO)NC(=O)c1cc(-c2ccc(Cl)cc2)nn(-c2cnn(C)c2)c1=O
Output: 103%

Input: Need viability, T/C, item CC(C)c1c(-c2ccccc2)nc2c(C#N)c[nH]n2c1=O + CC(CO)NC(=O)c1cc(-c2ccc(Cl)cc2)nn(-c2cnn(C)c2)c1=O
Output: 64.7%

Input: Need viability, T/C, item CC1COCCN1c1cc(C2(S(C)(=N)=O)CC2)nc(-c2ccnc3[nH]ccc23)n1 (configuration not stated) + Cc1ccccc1N=Nc1ccc(NC(=O)c2ccnn2C)c(C)c1
Output: 71.6%

Input: Need viability, T/C, item O=C(c1cc(Cc2n[nH]c(=O)c3ccccc23)ccc1F)N1CCN(C(=O)C2CC2)CC1 + Cc1ccccc1N=Nc1ccc(NC(=O)c2ccnn2C)c(C)c1
Output: 81.1%

Input: Need viability, T/C, item Nc1ncn(C2CC(O)C(CO)O2)c(=O)n1 (configuration not stated) + Cc1ccccc1N=Nc1ccc(NC(=O)c2ccnn2C)c(C)c1
Output: 66.9%

Input: Need viability, T/C, item Nc1ccn(C2OC(CO)C(O)C2(F)F)c(=O)n1 (configuration not stated) + Cc1cncc(-c2nc(NCCc3c[nH]c4ccccc34)c3ncn(C(C)C)c3n2)c1
Output: 50.4%

Input: Need viability, T/C, item COc1cccc2c1C(=O)c1c(O)c3c(c(O)c1C2=O)CC(O)(C(=O)CO)CC3OC1CC(N)C(O)C(C)O1 (configuration not stated) + Cc1cncc(-c2nc(NCCc3c[nH]c4ccccc34)c3ncn(C(C)C)c3n2)c1
Output: 4.5%

Input: Need viability, T/C, item COc1ccc([C@@H](O)c2cc(-c3ncnc4cc(N5CCOCC5)ccc34)c(F)cc2Cl)nn1 + Cc1cncc(-c2nc(NCCc3c[nH]c4ccccc34)c3ncn(C(C)C)c3n2)c1
Output: 96.7%

Input: Need viability, T/C, item CC1COCCN1c1cc(C2(S(C)(=N)=O)CC2)nc(-c2ccnc3[nH]ccc23)n1 (configuration not stated) + Cc1cncc(-c2nc(NCCc3c[nH]c4ccccc34)c3ncn(C(C)C)c3n2)c1
Output: 95%

More entries:
Input: Need viability, T/C, item COc1cc(Nc2ncc3c(n2)-c2ccc(Cl)cc2C(c2c(F)cccc2OC)=NC3)ccc1C(=O)O + Cc1cncc(-c2nc(NCCc3c[nH]c4ccccc34)c3ncn(C(C)C)c3n2)c1
Output: 63%

Input: Need viability, T/C, item COc1cc(Nc2ncc3c(n2)-c2ccc(Cl)cc2C(c2c(F)cccc2OC)=NC3)ccc1C(=O)O + CC(CO)NC(=O)c1cc(-c2ccc(Cl)cc2)nn(-c2cnn(C)c2)c1=O
Output: 60.5%
